Target: Cytochrome P450 3A4 (Homo sapiens)
Test: qHTS Assay for Activators of Cytochrome P450 3A4 (AID 885); note: nearly all actives have a fitted effect of over 65% in size
Settings: recombinant CYP3A4, Luciferin-PPXE luminescence, 60 min; series mostly up to 57.1 µM
Active and inactive are the calls of the source. Calls come from the whole dose curve; as a rule, active = well fitted activation curve with a large enough effect; inconclusive = small, poorly fitted or top-dose-only effect; inactive = no such curve, though single readings can be large or run the other way.
Recorded endpoint: activity change, positive = activation

Recorded results for 10 molecules are shown here.
Enter recorded activity change, positive = activation with Cytochrome P450 3A4 (Homo sapiens) for `COCCNC(=O)[C@@]1(Cc2ccccc2)C=C[C@@H](C)N1C(C)=O` here.
inactive

Enter recorded activity change, positive = activation with Cytochrome P450 3A4 (Homo sapiens) for CC1(C)OCC(CSC2=C(SCC3COC(C)(C)O3)C(=O)c3ncccc3C2=O)O1 (configuration not stated) here.
inactive

Enter recorded activity change, positive = activation with Cytochrome P450 3A4 (Homo sapiens) for `CCCNC(=O)OC[C@H]1O[C@@H](CCO/N=C2/[C@H]3O[C@@H]3[C@@H](O)[C@H]3[C@H]2CCn2c(=O)n(-c4ccccc4)c(=O)n23)C=C[C@@H]1Oc1ccc(OC)cc1` here.
-85.3% [at 11.4 µM] (inactive)

Enter recorded activity change, positive = activation with Cytochrome P450 3A4 (Homo sapiens) for `COc1ccc(-c2coc3c(OC)c(OC)cc(O)c3c2=O)cc1` here.
inactive

Enter recorded activity change, positive = activation with Cytochrome P450 3A4 (Homo sapiens) for `CCOC(=O)N/N=C1/C[C@@H](O)[C@@H](O)[C@@H]2[C@@H]3C(=O)N(Cc4ccc5c(c4)OCO5)C(=O)[C@H]3CC[C@@H]12` here.
-82.5% [at 11.4 µM] (inactive)

Enter recorded activity change, positive = activation with Cytochrome P450 3A4 (Homo sapiens) for `COc1ccc(-c2coc3cc(OC)cc(OC)c3c2=O)cc1` here.
inactive

Enter recorded activity change, positive = activation with Cytochrome P450 3A4 (Homo sapiens) for CC1=C(C(=O)OCc2ccccc2)C(c2ccc(C(F)(F)F)cc2)NC(=O)N1CCCCCC(=O)O (configuration not stated) here.
inactive

Enter recorded activity change, positive = activation with Cytochrome P450 3A4 (Homo sapiens) for CC(=O)N1CC=CC1(C)C(=O)O (configuration not stated) here.
inactive

Enter recorded activity change, positive = activation with Cytochrome P450 3A4 (Homo sapiens) for COC(=O)c1ccc(C(NC(=O)OCc2ccccc2)/C(F)=C/[C@@H](C)C(=O)NC2CCCCC2)cc1 (some centres not stated) here.
inactive

Enter recorded activity change, positive = activation with Cytochrome P450 3A4 (Homo sapiens) for COCCN=C1OC(=O)N2C(=O)C3=C4C(C[C@H]5C(=O)N(CC(=O)OC)C(=O)[C@H]5[C@H]4[C@@]12Cc1ccccc1)[C@H]1C(=O)N(CC(=O)OC)C(=O)[C@H]1[C@H]3C (some centres not stated) here.
inactive

Further cases:
Enter recorded activity change, positive = activation with Cytochrome P450 3A4 (Homo sapiens) for C=CCOCC/C=C1/c2ccccc2C(OC)C1C (configuration not stated) here.
-43.5% [at 11.4 µM] (inactive)

Enter recorded activity change, positive = activation with Cytochrome P450 3A4 (Homo sapiens) for `COC(=O)[C@@H]1CCCN1C(=O)[C@H]1C[C@@H]1[C@H](NC(=O)OCc1ccccc1)c1ccccc1` here.
inactive

Enter recorded activity change, positive = activation with Cytochrome P450 3A4 (Homo sapiens) for `CO[C@H]1COC(=O)C/C=C\[C@H](C)[C@@H](OC)COC(=O)[C@@H](C)COC(=O)C/C=C\[C@@H]1C` here.
-56.2% [at 11.4 µM] (inactive)

Enter recorded activity change, positive = activation with Cytochrome P450 3A4 (Homo sapiens) for `O=c1cc(-c2ccc(O)cc2)oc2cccc(O)c12` here.
inactive

Enter recorded activity change, positive = activation with Cytochrome P450 3A4 (Homo sapiens) for `CO/N=C(\C)CCN1CCCCc2nc(C)c(C)cc21` here.
-38.2% [at 11.4 µM] (inactive)

Enter recorded activity change, positive = activation with Cytochrome P450 3A4 (Homo sapiens) for CCCCCCN(C(=O)CCCCCN1C(=O)NC(c2ccc(-c3ccccc3)cc2)C(C(=O)OCc2ccccc2)=C1C)C(C(=O)NCCCC)c1ccc(O)c(C(=O)OC)c1 (configuration not stated) here.
inactive

Enter recorded activity change, positive = activation with Cytochrome P450 3A4 (Homo sapiens) for `COC(=O)[C@@H]1C[C@@]2(O)[C@H](O)[C@H](O)[C@H](O)C[C@H]2N1Cc1cc(OC)cc(OC)c1` here.
inactive
